Overview of reported cell viability across a group of compounds:
system: HCI11 (cells of an ER-positive luminal breast cancer xenograft); assay: cell viability (% of vehicle); higher = less cytotoxic; details: 10 µM; 72 h;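 further: PDX cells carrying CMV promoter-driven luciferase, viability read as total photon flux per second by IVIS imaging following D-luciferin, vehicle control 0.1% DMSO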
// print number alone

Some entries whose results are on file:
Data request: Find cell viability (HCI11) for the entry CN(C)c1cc(NC(=O)CNC(C)(C)C)c(O)c2c1CC1CC3C(N(C)C)C(=O)C(C(N)=O)=C(O)C3(O)C(=O)C1=C2O (stereo unspecified) [Tigecycline]
Data returned: 81.9

Data request: Another compound to check: Cl.O=c1n(CCCN2CCN(c3cccc(Cl)c3)CC2)nc2ccccn12 [Trazodone HCl]
Data returned: 101

Data request: Another compound to check: O=C(O)Cc1cc(I)c(Oc2ccc(O)c(I)c2)c(I)c1 [Tiratricol]
Data returned: 87.2

Data request: Another compound to check: CC(C)C(N)C(=O)OCCOCn1cnc2c(=O)nc(N)[nH]c21.Cl (stereo unspecified) [Valaciclovir HCl]
Data returned: 88.8

Data request: Another compound to check: CCCc1nn(C)c2c(=O)nc(-c3cc(S(=O)(=O)N4CCN(C)CC4)ccc3OCC)[nH]c12 [Sildenafil]
Data returned: 73.3

New cases:
Data request: Find cell viability (HCI11) for the entry CN1C(C(=O)Nc2ccccn2)=C(O)c2sccc2S1(=O)=O [Tenoxicam]
Data returned: 89.7

Data request: Another compound to check: CCCN1CCCCC1C(=O)Nc1c(C)cccc1C.Cl (stereo unspecified) [Ropivacaine HCl]
Data returned: 86

Data request: Another compound to check: O=c1ncnc2[nH][nH]cc1-2 [Allopurinol]
Data returned: 110

Data request: Another compound to check: Cl.Cl.Clc1ccc(Nc2nnc(Cc3ccncc3)c3ccccc23)cc1 [Vatalanib (PTK787) 2HCl]
Data returned: 92.3

====

Overview of reported cell viability across a group of compounds:
system: WHIM2 (cells of a triple-negative basal-like breast cancer xenograft); assay: cell viability (% of vehicle); higher = less cytotoxic; conditions: 10 µM; 72 h

Data request: Returns the measured cell viability for the input compound. Input: C[C@@H]1C\C=C/C=C\C=C/C=C\[C@H](O[C@@H]2O[C@H](C)[C@@H](O)[C@H](N)[C@@H]2O)C[C@@H]2O[C@](O)(C[C@@H](O)C[C@H]3O[C@@H]3/C=C\C(=O)O1)C[C@H](O)[C@H]2C(=O)O [Natamycin]
Data returned: 103

Data request: Another compound to check: CN(C)CCc1c[nH]c2ccc(Cn3cncn3)cc12.O=C(O)c1ccccc1 [Rizatriptan Benzoate]
Data returned: 86.3

Data request: Another compound to check: NC(=O)c1cn(Cc2c(F)cccc2F)nn1 [Rufinamide]
Data returned: 93.3

Turning now to a further record.
Data request: Returns the measured cell viability for the input compound. Input: Nc1nccs1 [Aminothiazole]
Data returned: 116

====

system: HCI16 (cells of a triple-negative basal-like breast cancer xenograft); experiment: cell viability (% of vehicle); higher = less cytotoxic; details: 10 µM; 72 h
Quantity kind: cell viability
// print number alone

Some entries whose results are on file:
Data request: Returns the measured cell viability for the input compound. Input: Cc1ccsc1C(=CCCN1CCC[C@@H](C(=O)O)C1)c1sccc1C [Tiagabine]
Data returned: 115

Data request: Another compound to check: COc1ccccc1Oc1c(NS(=O)(=O)c2ccc(C(C)(C)C)cc2)nc(-c2ncccn2)nc1OCCO [Bosentan]
Data returned: 104

Data request: Another compound to check: CCOc1ccc(NC(C)=O)cc1 [Phenacetin]
Data returned: 122

New cases:
Data request: Returns the measured cell viability for the input compound. Input: Cc1nccn1CC1CCc2c(c3ccccc3n2C)C1=O.Cl.O.O (centres undefined) [Ondansetron hydrochloride dihydrate]
Data returned: 106

Data request: Another compound to check: Cl.Cl.O=C1c2c(O)ccc(O)c2C(=O)c2c(NCCNCCO)ccc(NCCNCCO)c21 [Mitoxantrone HCl]
Data returned: 117

Data request: Another compound to check: CC(=O)N[C@H](Cc1ccc2ccccc2c1)C(=O)N[C@H](Cc1ccc(Cl)cc1)C(=O)N[C@H](Cc1cccnc1)C(=O)N[C@@H](CO)C(=O)N[C@@H](Cc1ccc(O)cc1)C(=O)N[C@H](CCCNC(N)=O)C(=O)N[C@@H](CC(C)C)C(=O)N[C@@H](CCCNC(=N)N)C(=O)N1CCC[C@H]1C(=O)N[C@H](C)C(N)=O [Cetrorelix]
Data returned: 151

Data request: Another compound to check: Clc1ccc2c(c1)CCc1cccnc1C2=C1CCNCC1 [Desloratadine]
Data returned: 128

Data request: Another compound to check: N#CCC(C1CCCC1)n1cc(-c2ncnc3[nH]ccc23)cn1 (centres undefined)
Data returned: 106
